Data provenance is paper PMC12326358.

- TEST_DETAILS: Pharmacokinetic studies (oral and intravenous dosing) in jugular vein cannulated rats
- ASSAY_CONTEXT: rat, in vivo, po, AUC0-inf, nanoemulsion, rats; serum, dose-normalized to 1 mg/kg; mean ± SD
- Procedure: Absolute oral bioavailability and other pharmacokinetic parameters were determined in a series of two-period, crossover studies, where the cannabinoids were administered intravenously in the first period, and orally in the second. […] Serum and lymph concentrations in all studies were dose-normalized to 1 mg/kg prior to further calculations. AUC values were determined using linear trapezoidal rule. […]
AUC(0-inf) overview
The reply should be a number in ng·h/mL, with the unit left off.

CCCCCc1cc(O)c2c(c1)OC(C)(C)c1ccc(C)cc1-2; 91
C=C(C)[C@@H]1CCC(C)=C[C@H]1c1c(O)cc(CCCCC)cc1O; 256

### Prompt Return reported AUC(0-inf); argument: CCCCCc1cc(O)c2c(c1)OC(C)(CCC=C(C)C)C=C2 (stereo not drawn)
### Response 117

* * *

- TEST_DETAILS: Pharmacokinetic studies (oral and intravenous dosing) in jugular vein cannulated rats
- ASSAY_CONTEXT: rat, in vivo, po, Tmax, nanoemulsion, rats; mean ± SD
Item-by-item account of Tmax
Hey, just the number and the unit after it is fine.

Completed entries (count: 2):
C=C(C)[C@@H]1CCC(C)=C[C@H]1c1c(O)cc(CCCCC)cc1O; 3.2 h
CCCCCc1cc(O)c2c(c1)OC(C)(C)c1ccc(C)cc1-2; 2.2 h

Attention now shifts to the item below.
### Prompt Quick check: Tmax of CCCCCc1cc(O)c2c(c1)OC(C)(CCC=C(C)C)C=C2 (stereo not drawn) ?
### Response 3.6 h

* * *

- Type: physicochemical
- ASSAY_CONTEXT: final nanoemulsion, cannabinoid 15 mg/ml, 1 day
REPORTED_PROPERTY: DLS, 90° size (nm)
Respond with the bare value in nm.

Previously resolved entries follow.
C=C(C)[C@@H]1CCC(C)=C[C@H]1c1c(O)cc(CCCCC)cc1O; 26
CCCCCc1cc(O)c2c(c1)OC(C)(C)c1ccc(C)cc1-2; 27
CCCCCc1cc(O)c2c(c1)OC(C)(CCC=C(C)C)C=C2 (stereo not shown); 25

### Prompt So what does the record say about DLS, 90° size for "CCCCCc1cc(O)c(C/C=C(\C)CCC=C(C)C)c(O)c1" ?
### Response 31

* * *

- TEST_DETAILS: in vivo
- ASSAY_CONTEXT: rat, in vivo, iv, 1.5 mg, Cmax
REPORTED_PROPERTY: Cmax (ng/mL)
Return type: number; implicit unit ng/mL.

### Prompt Suppose we examine the compound CCCCCc1cc(O)c(C/C=C(\C)CCC=C(C)C)c(O)c1 [CBG, cannabigerol] ; what Cmax value has been reported?
### Response 1190

* * *

- Type: physicochemical
- ASSAY_CONTEXT: final nanoemulsion, cannabinoid 15 mg/ml, 30 days
REPORTED_PROPERTY: DLS, 90° size (nm)
Express the result in nm but write the number alone.

Below, 3 compounds whose answers are already recorded.
CCCCCc1cc(O)c2c(c1)OC(C)(C)c1ccc(C)cc1-2; 27
CCCCCc1cc(O)c(C/C=C(\C)CCC=C(C)C)c(O)c1; 32
C=C(C)[C@@H]1CCC(C)=C[C@H]1c1c(O)cc(CCCCC)cc1O; 26

### Prompt What does the record list as DLS, 90° size for CCCCCc1cc(O)c2c(c1)OC(C)(CCC=C(C)C)C=C2 (stereo not shown) ?
### Response 25

* * *

The following compounds are listed with their measured clearance values.
- TEST_DETAILS: Pharmacokinetic studies (oral and intravenous dosing) in jugular vein cannulated rats
- ASSAY_CONTEXT: rat, in vivo, iv, 1.5 mg
All answers are understood in mL/min/kg, so give the number only.

### Prompt Fill in: clearance of CCCCCc1cc(O)c2c(c1)OC(C)(CCC=C(C)C)C=C2 (stereo not drawn) [CBC, cannabichromene] is ___
### Response 100

### Prompt # repeat for CCCCCc1cc(O)c(C/C=C(\C)CCC=C(C)C)c(O)c1 [CBG, cannabigerol]
### Response 98.3

### Prompt Here is the next compound: CCCCCc1cc(O)c2c(c1)OC(C)(C)c1ccc(C)cc1-2 [CBN, cannabinol]
### Response 50
